test-target: T1, human GFRα3 expressed with a C-terminal myc-myc-hexahistidine tag (human, UniProt O60609 32-374, biotinylated (sites not given) in ELISA format 2 and in the Octet cross-competition; not in SPR)
T1 construct: also called hGFRα3-mmh; hGFRα3-mmH
T1 sequence (O60609 other isoform, or with tags, fused parts or gaps limits assumed): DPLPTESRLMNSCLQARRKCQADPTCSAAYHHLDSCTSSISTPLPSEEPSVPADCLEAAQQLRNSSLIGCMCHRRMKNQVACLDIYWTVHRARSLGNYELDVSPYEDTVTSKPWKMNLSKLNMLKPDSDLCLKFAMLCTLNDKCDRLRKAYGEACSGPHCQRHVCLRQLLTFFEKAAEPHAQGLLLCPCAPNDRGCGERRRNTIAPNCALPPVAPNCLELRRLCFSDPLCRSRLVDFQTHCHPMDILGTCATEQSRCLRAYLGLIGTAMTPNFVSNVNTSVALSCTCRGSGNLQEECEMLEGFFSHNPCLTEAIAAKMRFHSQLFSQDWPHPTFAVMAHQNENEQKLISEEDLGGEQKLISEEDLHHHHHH
protocol-notes: SPR, Ab captured, 25C
From the text: […]
Consider the following binders and their measured kon readings.
Please reply with the bare figure in M⁻¹ s⁻¹ and do not write the unit itself.

Given item H4H2293P (antibody, human IgG4, V domains shown, human IgG4 Fc (H4H)) VH: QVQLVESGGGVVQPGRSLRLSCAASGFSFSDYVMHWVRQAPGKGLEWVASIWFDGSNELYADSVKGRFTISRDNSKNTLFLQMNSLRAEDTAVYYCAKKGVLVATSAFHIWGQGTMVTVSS VL: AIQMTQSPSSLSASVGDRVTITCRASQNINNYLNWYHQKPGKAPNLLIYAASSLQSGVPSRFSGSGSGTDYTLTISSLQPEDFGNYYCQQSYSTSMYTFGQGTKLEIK , the value recorded as its kon is 581000

kon recorded for this binder, H4H2345S (antibody, human IgG4, V domains shown, human IgG4 Fc (H4H)) VH: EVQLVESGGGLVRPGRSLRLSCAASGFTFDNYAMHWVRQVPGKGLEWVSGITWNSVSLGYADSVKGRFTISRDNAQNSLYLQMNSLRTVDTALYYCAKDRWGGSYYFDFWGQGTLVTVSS VL: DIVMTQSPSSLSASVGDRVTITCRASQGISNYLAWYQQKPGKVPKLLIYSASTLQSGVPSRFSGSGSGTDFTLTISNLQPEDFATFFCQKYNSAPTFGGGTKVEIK , is 109000
